# Tgt: PfLPL3 (lysophospholipase 3; recombinant hydrolase domain) (Plasmodium falciparum)
# Sequence (Q8IK68 41-338): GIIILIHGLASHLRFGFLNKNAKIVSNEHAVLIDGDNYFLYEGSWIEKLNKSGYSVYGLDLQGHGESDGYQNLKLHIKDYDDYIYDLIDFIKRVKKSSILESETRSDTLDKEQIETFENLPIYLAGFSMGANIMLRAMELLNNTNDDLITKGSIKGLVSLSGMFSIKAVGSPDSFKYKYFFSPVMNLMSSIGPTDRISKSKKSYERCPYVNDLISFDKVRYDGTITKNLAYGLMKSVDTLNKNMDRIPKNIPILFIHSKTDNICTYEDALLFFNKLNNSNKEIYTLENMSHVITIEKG
# Assay Comment: coupled fluorescent lysophospholipase assay
# Run Parameters: 16:0 LPC substrate; 50 mM Tris pH 8.0, 5 mM CaCl2; 20 μg enzyme in 200 μl
I'd appreciate it if you could supply IC50 values for the items below.
Answers are plain numbers, in nM.

Compound | IC50 [nM]
O=C(CCc1ccccc1)c1ccccc1OCC(O)CN1CCCCC1 (centres unmarked) | 1260

Output IC50 of CCOc1cc(Br)c(C(C)NC(=O)c2cccc(OC)c2)cc1OCC (centres unmarked)
920

Taken from paper doi:10.1101/2021.07.01.450682v1.
